# Format: physicochemical
# CONDITION_SUMMARY: SGF with pepsin, pH 1.5, 37° C.; time 24 h; first of two values
TEST_READOUT: Condition 1 Conversion (%), first value of pair x/y
Answer with a number only, understood to be in %.

// sample "COc1ccc([C@@]23CC/C(=N\OC(C)(C)OC)C[C@@H]2N(C)CC3)cc1OC" , its Condition 1 Conversion (%), first value of pair x/y was 0

// sample COc1ccc([C@@]23CCC(=NOC4CCCCO4)C[C@@H]2N(C)CC3)cc1OC (stereo partly shown) , its Condition 1 Conversion (%), first value of pair x/y was 0

// sample "COc1ccc([C@@]23CC/C(=N/OC(C)(C)OC)C[C@@H]2N(C)CC3)cc1OC" , its Condition 1 Conversion (%), first value of pair x/y was 0

Next:
// sample "COc1ccc([C@@]23CCC(=NOCC(=O)OC(C)(C)C)C[C@@H]2N(C)CC3)cc1OC" , its Condition 1 Conversion (%), first value of pair x/y was 64.4
